// data source = paper PMC3433420

# Target desc: T1, PIK3R3 C-terminal SH2 domain (human)
# T1 construct: PIK3R3, human; source: bacterial expression, purified
# Method notes: SPR; Biacore 3000; 6X His SH2 proteins held on a Ni-NTA chip, dye-free peptides in solution, equilibrium
# Cond: both partners purified
Non-standard residues stand in square brackets, D forms with d. No end group written: not given here. pY = N[C@@H](Cc1ccc(OP(=O)(O)O)cc1)C(=O)O
// classify: if (Kd < 100 nM) condition met else condition not met

Binder: TNHI[pY]SNLANCS [KIT pY936 phosphopeptide, dye-free]
Group label: condition met

Binder: PDPL[pY]EVMLKCW [MET pY1313 phosphopeptide, dye-free]
Group label: condition met

Binder: QEAN[pY]VPMTPGTD [Gab1 pY472 phosphopeptide, dye-free]
Group label: condition met

Binder: FGCV[pY]HGTLLDN [MET pY1093 phosphopeptide, dye-free]
Group label: condition not met

Binder: DPQD[pY]LLLINCQD [Gab1 pY183 phosphopeptide, dye-free]
Group label: condition not met
